Ki: recorded values
# tested-on: μ-opioid receptor (Homo sapiens)
# Sequence (P35372 whole entry): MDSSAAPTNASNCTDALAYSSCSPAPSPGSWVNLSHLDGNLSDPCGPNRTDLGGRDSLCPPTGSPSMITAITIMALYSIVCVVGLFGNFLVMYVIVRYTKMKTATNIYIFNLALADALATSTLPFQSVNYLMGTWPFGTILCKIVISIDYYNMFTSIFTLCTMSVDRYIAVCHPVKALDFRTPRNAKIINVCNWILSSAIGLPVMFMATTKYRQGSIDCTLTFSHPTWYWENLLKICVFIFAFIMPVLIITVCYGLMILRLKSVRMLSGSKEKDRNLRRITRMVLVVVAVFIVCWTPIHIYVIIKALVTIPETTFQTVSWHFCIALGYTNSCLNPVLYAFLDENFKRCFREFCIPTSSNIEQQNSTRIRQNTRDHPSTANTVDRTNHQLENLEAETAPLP
# assay-explanation: biochemical

Example entries begin here.
Param readout = Ki; param system = μ-opioid receptor (Homo sapiens); param query = Oc1cccc([C@@]23CCC[C@@H](C2)N(C/C=C\c2ccccc2)CC3)c1 [(+)−9] ; response: value 26 nM

Param readout = Ki; param system = μ-opioid receptor (Homo sapiens); param query = Oc1cccc([C@]23CCC[C@H](C2)N(CC=Cc2ccccc2)CC3)c1 [(−)−6] ; response: value 6 nM

Further cases:
Param readout = Ki; param system = μ-opioid receptor (Homo sapiens); param query = Oc1cccc([C@]23CCC[C@H](C2)N(C/C=C\c2ccccc2)CC3)c1 [(−)−9] ; response: value 14 nM

Param readout = Ki; param system = μ-opioid receptor (Homo sapiens); param query = Oc1cccc([C@@]23CCC[C@@H](C2)N(CC=Cc2ccccc2)CC3)c1 [(+)−6] ; response: value 2 nM
